# testSystem: ErbB4 on neonatal rat cardiomyocytes (rat) (UniProt Q62956)
# Sequence (Q62956 26-1308): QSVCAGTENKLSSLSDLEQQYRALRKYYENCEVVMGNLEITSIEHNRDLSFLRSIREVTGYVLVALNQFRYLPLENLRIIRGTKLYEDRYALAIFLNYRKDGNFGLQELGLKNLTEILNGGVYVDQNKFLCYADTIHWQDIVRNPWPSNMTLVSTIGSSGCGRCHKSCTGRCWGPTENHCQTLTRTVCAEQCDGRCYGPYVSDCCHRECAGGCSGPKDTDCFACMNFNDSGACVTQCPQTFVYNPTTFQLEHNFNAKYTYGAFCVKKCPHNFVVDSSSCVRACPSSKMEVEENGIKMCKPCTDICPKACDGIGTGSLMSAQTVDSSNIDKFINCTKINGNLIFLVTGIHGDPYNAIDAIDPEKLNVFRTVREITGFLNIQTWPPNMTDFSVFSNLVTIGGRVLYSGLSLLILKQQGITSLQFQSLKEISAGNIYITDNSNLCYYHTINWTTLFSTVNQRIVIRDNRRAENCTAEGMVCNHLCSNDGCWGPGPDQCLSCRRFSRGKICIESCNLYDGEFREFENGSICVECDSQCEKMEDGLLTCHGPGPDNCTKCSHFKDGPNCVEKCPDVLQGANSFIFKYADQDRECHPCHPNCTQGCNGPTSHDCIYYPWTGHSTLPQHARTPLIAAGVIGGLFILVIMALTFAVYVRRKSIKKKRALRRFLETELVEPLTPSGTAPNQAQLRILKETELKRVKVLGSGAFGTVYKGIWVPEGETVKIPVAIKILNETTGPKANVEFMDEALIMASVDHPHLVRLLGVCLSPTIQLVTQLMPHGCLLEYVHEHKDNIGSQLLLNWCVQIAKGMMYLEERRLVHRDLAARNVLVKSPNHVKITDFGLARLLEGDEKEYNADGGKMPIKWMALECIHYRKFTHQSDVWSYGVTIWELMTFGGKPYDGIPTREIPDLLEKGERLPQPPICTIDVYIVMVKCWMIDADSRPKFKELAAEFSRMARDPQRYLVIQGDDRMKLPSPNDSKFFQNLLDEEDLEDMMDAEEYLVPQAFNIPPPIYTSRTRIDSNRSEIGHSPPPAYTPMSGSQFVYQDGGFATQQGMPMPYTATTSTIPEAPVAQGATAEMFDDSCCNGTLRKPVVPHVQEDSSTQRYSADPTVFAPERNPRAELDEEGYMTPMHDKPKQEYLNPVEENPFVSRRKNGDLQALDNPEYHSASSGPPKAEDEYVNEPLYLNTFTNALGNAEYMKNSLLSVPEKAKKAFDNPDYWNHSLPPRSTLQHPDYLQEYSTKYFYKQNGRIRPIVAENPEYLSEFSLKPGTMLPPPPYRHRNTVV
# testDescription: cell-based or functional assay
readoutType: Cardiomyocyte (CM) (ErbB4) Avg EC50 (nM)
Reply with just the number (in nM).

Recorded Cardiomyocyte (CM) (ErbB4) Avg EC50, per entry:
Note to self: Cardiomyocyte (CM) (ErbB4) Avg EC50 recorded for huNRG1(S177-Q237)(NRGE1O)::GG::huFcSEFL2 (Pb) (Fc fusion) SHLVKCGEKHKSFCVNGGECYMVEGSSIPSRYLCKCPNEFTGDRCQDFFMASFYKAEELYQGGDKTHTCPPCPAPELLGGPSVFLFPPKPKDTLMISRTPEVTCVVVDVSHEDPEVKFNWYVDGVEVHNAKTKPCEEQYGSTYRCVSVLTVLHQDWLNGKEYKCKVSNKALPAPIEKTISKAKGQPREPQVYTLPPSREEMTKNQVSLTCLVKGFYPSDIAVEWESNGQPENNYKTTPPVLDSDGSFFLYSKLTVDKSRWQQGNVFSCSVMHEALHNHYTQKSLSLSPGK was 1.04

Note to self: Cardiomyocyte (CM) (ErbB4) Avg EC50 recorded for huNRG1(S177-F229)(NRGE1D) (E47V_D48T_F49R_M50L) 6xHis (ligand) SHLVKCGESHKSFCVNGGECYMVEGSSIPSRYLCKCPNEFTGDRCQVTRLASFGGGGEGGGGAGGGGHHHHHH was 0.224

Note to self: Cardiomyocyte (CM) (ErbB4) Avg EC50 recorded for huNRG1(S177-Q237)(2E3)::GG::huFcSEFL2 (Pb) (Fc fusion) SHLVKCGEKEKSFCVNGGECYMIEGLSIPSRFLCKCPNEFTGDRCQDVFMASFYKAEELYQGGDKTHTCPPCPAPELLGGPSVFLFPPKPKDTLMISRTPEVTCVVVDVSHEDPEVKFNWYVDGVEVHNAKTKPCEEQYGSTYRCVSVLTVLHQDWLNGKEYKCKVSNKALPAPIEKTISKAKGQPREPQVYTLPPSREEMTKNQVSLTCLVKGFYPSDIAVEWESNGQPENNYKTTPPVLDSDGSFFLYSKLTVDKSRWQQGNVFSCSVMHEALHNHYTQKSLSLSPGK was 0.658

---
Note to self: Cardiomyocyte (CM) (ErbB4) Avg EC50 recorded for huNRG1(S177-Q237)(NRGE1H)::GG::huFcSEFL2 (Pb) (Fc fusion) SHLVKCGESHKSFCVNGGECFMIEGPSNPSRYLCKCPNEFTGDRCQNDFMASFYKAEELYQGGDKTHTCPPCPAPELLGGPSVFLFPPKPKDTLMISRTPEVTCVVVDVSHEDPEVKFNWYVDGVEVHNAKTKPCEEQYGSTYRCVSVLTVLHQDWLNGKEYKCKVSNKALPAPIEKTISKAKGQPREPQVYTLPPSREEMTKNQVSLTCLVKGFYPSDIAVEWESNGQPENNYKTTPPVLDSDGSFFLYSKLTVDKSRWQQGNVFSCSVMHEALHNHYTQKSLSLSPGK was 0.286

Note to self: Cardiomyocyte (CM) (ErbB4) Avg EC50 recorded for huNRG1(S177-Q237)(NRGE1E)::GG::huFcSEFL2 (Pb) (Fc fusion) SHLVKCGENDKSFCVNGGECFMIEGPSNPSRYLCKCPNEFTGDRCQNDFMASFYKAEELYQGGDKTHTCPPCPAPELLGGPSVFLFPPKPKDTLMISRTPEVTCVVVDVSHEDPEVKFNWYVDGVEVHNAKTKPCEEQYGSTYRCVSVLTVLHQDWLNGKEYKCKVSNKALPAPIEKTISKAKGQPREPQVYTLPPSREEMTKNQVSLTCLVKGFYPSDIAVEWESNGQPENNYKTTPPVLDSDGSFFLYSKLTVDKSRWQQGNVFSCSVMHEALHNHYTQKSLSLSPGK was 0.995

Data origin: patent US20220402985A1
